pIC50: −log10 of the molar value.
Endpoint summary: pIC50, system: RAC-gamma serine/threonine-protein kinase (Homo sapiens, UniProt Q9Y243), multiple sources combined.

Solved entries (count: 6):
In [3]: df
Out[3]:
                                   molecule  observedmeasurement
0  COCCc1nnc2n1-c1cc(-c3ccccc3)c(-c3ccc(C4(N)CCC4)cc3)nc1OC2         5.00 to 6.00
1       c1cc2cc(Nc3ccc4c(c3)OCCO4)cnc2[nH]1               ≥ 5.00
2  O=C(c1cccc(O)c1F)c1c[nH]c2ncc(-c3cccnc3)cc12               ≥ 5.00
3  Cn1nccc1-c1ccc2c(c1)CN([C@H](CN)Cc1cccc(C#N)c1)C2=O         5.30 to 6.30
4  COC(c1ccc(NCc2ccc(Cl)cc2)nc1)c1c[nH]c2ncccc12 (stereo not shown)               ≥ 5.00
5  CC(C)NC[C@@H](C(=O)N1CCN(c2ncnc3c2CCC(=O)N3)CC1)c1ccc(Cl)cc1                 8.12

Request: State its pIC50 for this molecule: NC1(c2ccc(-c3nc4c(cc3-c3ccccc3)-n3c(CF)nnc3CO4)cc2)CCC1
Response: 6.00 to 7.00
